I'd be grateful if you could share measured log10 of IC50 for these entries.
- target.entity: PRMT5/MEP50 complex (Homo sapiens (Human), UniProt O14744)
- Sequence (O14744 2-637): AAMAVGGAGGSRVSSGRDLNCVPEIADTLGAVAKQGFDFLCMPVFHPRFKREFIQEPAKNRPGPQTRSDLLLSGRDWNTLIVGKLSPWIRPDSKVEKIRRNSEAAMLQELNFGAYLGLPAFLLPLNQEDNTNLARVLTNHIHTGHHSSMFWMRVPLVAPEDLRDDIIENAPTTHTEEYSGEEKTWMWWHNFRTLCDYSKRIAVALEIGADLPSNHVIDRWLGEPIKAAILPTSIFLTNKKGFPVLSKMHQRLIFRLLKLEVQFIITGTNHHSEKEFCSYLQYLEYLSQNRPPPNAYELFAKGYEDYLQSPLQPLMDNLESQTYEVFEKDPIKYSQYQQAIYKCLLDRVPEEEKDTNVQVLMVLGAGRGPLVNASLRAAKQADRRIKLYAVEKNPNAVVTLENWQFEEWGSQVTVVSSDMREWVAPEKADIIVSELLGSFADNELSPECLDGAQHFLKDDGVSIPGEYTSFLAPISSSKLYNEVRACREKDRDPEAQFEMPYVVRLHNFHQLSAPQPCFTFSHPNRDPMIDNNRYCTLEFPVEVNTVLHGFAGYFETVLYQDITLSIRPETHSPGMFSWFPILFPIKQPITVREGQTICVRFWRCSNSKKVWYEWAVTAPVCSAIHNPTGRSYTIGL
- Sequence (Q9BQA1 2-342 partner): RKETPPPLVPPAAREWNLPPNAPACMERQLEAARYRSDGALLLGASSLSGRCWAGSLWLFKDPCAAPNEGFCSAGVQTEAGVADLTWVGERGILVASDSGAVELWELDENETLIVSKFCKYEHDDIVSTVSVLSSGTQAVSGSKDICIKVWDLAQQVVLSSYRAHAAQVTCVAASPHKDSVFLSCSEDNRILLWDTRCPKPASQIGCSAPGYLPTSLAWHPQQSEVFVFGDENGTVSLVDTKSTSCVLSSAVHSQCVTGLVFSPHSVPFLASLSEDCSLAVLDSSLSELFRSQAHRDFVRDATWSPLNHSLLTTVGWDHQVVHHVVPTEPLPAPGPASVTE
- assay.overview: PRMT5:MEP50 FlashPlate Assay (histone H4 peptide substrate, plus and minus MTA)
- Format: biochemical
- test.context: IC50 + 2 μM MTA (nM), in the presence of 2 μM MTA
Heads up, the numbers here are log10 of IC50 in nM units.

molecule.smiles | measured.number
COc1ccccc1Oc1cncc(-c2ccc3c(=O)[nH]nc(CN)c3c2)c1 | -0.30
Cc1ccc2ncc(-c3ccc4c(=O)[nH]nc(CN)c4c3)n2c1 | 1.67

Hi there! I need log10 of IC50 for each item below, if you can.
1. Cc1ccc(-c2c(-c3ccc4c(=O)[nH]nc(CN)c4c3)cnn2C)cn1
2. NCc1n[nH]c(=O)c2ccc(-c3nncn3Cc3ccccc3)cc12
3. COc1ccc(C#N)c(-c2cncc(-c3ccc4c(=O)[nH]nc(CN)c4c3)c2)c1

1: 1.18; 2: 4.48; 3: 1.30

These entries and their values trace back to patent US11479551B2.
